# test details: Pharmacokinetic parameters (Tmax, AUClast, Cmax) of DD217 in phase II trial patients
# Assay type: in vivo, human (patients undergoing knee replacement surgery)
# condition details: human, plasma, oral, 40 mg; CYP2C9 *2/*3, *3/*3, PM (n = 2); mean ± SD; read-out: AUClast
measurement label: AUC(0-t) (ng·h/mL)

INSERT INTO assay_data (entry_smiles, result) VALUES
  ('CC(=N)N(C)c1ccc(C(=O)Nc2ccc(C)cc2C(=O)Nc2ccc(Cl)cn2)cc1.Cl', 18.6);

----------
# test details: Pharmacokinetic parameters (Tmax, AUClast, Cmax) of DD217 in phase II trial patients
# Format: in vivo, human (patients undergoing knee replacement surgery)
# condition details: human, plasma, oral, 40 mg; CYP2C9 *2/*3, *3/*3, PM (n = 2); mean ± SD; read-out: Cmax
measurement label: Cmax (ng/mL)

INSERT INTO results (entry_smiles, scale_unit, result) VALUES
  ('CC(=N)N(C)c1ccc(C(=O)Nc2ccc(C)cc2C(=O)Nc2ccc(Cl)cn2)cc1.Cl', 'ng/mL', 3.11);
